Test system: HuO9 (Osteosarcoma)
experiment description: Bliss excess, mean over the matrix (fraction); higher = more synergy
experimental readout: Bliss excess
Write the number on its own, no unit after it.

| compound | Bliss excess |
| --- | --- |
| NC1(C(=O)N[C@@H](CCO)c2ccc(Cl)cc2)CCN(c2ncnc3[nH]ccc23)CC1 [Capivasertib] + CC(=O)c1c(C)c2cnc(Nc3ccc(N4CCNCC4)cn3)nc2n(C2CCCC2)c1=O [Palbociclib] (first compound max 10 µM, 7x7, partner max 10 µM) | -0.0311 |

// next entry
Query string: Value lookup for Bliss excess; key = CC(=O)c1c(C)c2cnc(Nc3ccc(N4CCNCC4)cn3)nc2n(C2CCCC2)c1=O [Palbociclib] + Cn1cnc2c(F)c(Nc3ccc(Br)cc3Cl)c(C(=O)NOCCO)cc21 [Selumetinib] (first compound max 10 µM, 7x7, partner max 10 µM)
Result string: -0.064

====

Tested on: MES-SA (Other Solid Carcinomas)
experiment description: combination Emax (second highest fraction inhibited in the dose matrix, 72 h); higher = more inhibition; extreme values may be limits of the assay
The compounds listed here are annotated with their combination Emax.
Write the number on its own, no unit after it.

| compound | combination Emax |
| --- | --- |
| CC1(C)CCC(CN2CCN(c3ccc(C(=O)NS(=O)(=O)c4ccc(NCC5CCOCC5)c([N+](=O)[O-])c4)c(Oc4cnc5[nH]ccc5c4)c3)CC2)=C(c2ccc(Cl)cc2)C1 [Venetoclax] + C1CN(CCC1(C(=O)N[C@@H](CCO)C2=CC=C(C=C2)Cl)N)C3=NC=NC4=C3C=CN4 [Capivasertib] (first compound max 1 µM, 7x7, partner max 3 µM) | 0.355 |
| CN(CCO)CC[C@H](CSc1ccccc1)Nc1ccc(S(=O)(=O)NC(=O)c2ccc(N3CCC([C@@H](O)c4ccccc4-c4ccc(Cl)cc4)CC3)cc2)cc1S(=O)(=O)C(F)(F)F [AZD4320] + C1CN(CCC1(C(=O)N[C@@H](CCO)C2=CC=C(C=C2)Cl)N)C3=NC=NC4=C3C=CN4 [Capivasertib] (first compound max 1 µM, 7x7, partner max 3 µM) | 0.282 |

// next entry
Query string: Value lookup for combination Emax; key = CC(=O)c1c(C)c2cnc(Nc3ccc(N4CCNCC4)cn3)nc2n(C2CCCC2)c1=O [Palbociclib] + CC1(C)CCC(CN2CCN(c3ccc(C(=O)NS(=O)(=O)c4ccc(NCC5CCOCC5)c([N+](=O)[O-])c4)c(Oc4cnc5[nH]ccc5c4)c3)CC2)=C(c2ccc(Cl)cc2)C1 [Venetoclax] (first compound max 10 µM, 7x7, partner max 1 µM)
Result string: 0.361

====

The compounds listed here are annotated with their Bliss excess.
System: YT (Other Blood Carcinomas)
experiment description: Bliss excess, mean over the matrix (fraction); higher = more synergy
Write the number on its own, no unit after it.

Below, each entry is followed by its recorded Bliss excess result.
| compound | Bliss excess |
| --- | --- |
| CN(CCO)CC[C@H](CSc1ccccc1)Nc1ccc(S(=O)(=O)NC(=O)c2ccc(N3CCC([C@@H](O)c4ccccc4-c4ccc(Cl)cc4)CC3)cc2)cc1S(=O)(=O)C(F)(F)F [AZD4320] + C[C@@H](Nc1cc(F)cc(F)c1)c1cc(C(=O)N(C)C)cc2c(=O)cc(N3CCOCC3)oc12 [AZD8186] (first compound max 1 µM, 7x7, partner max 3 µM) | 0.0327 |
| CN(CCO)CC[C@H](CSc1ccccc1)Nc1ccc(S(=O)(=O)NC(=O)c2ccc(N3CCC([C@@H](O)c4ccccc4-c4ccc(Cl)cc4)CC3)cc2)cc1S(=O)(=O)C(F)(F)F [AZD4320] + C=CCn1c(=O)c2cnc(Nc3ccc(N4CCN(C)CC4)cc3)nc2n1-c1cccc(C(C)(C)O)n1 [AZD1775] (first compound max 1 µM, partner max 1 µM) | -0.0156 |

// next entry
Query string: Value lookup for Bliss excess; key = O=C(c1cc(Cc2n[nH]c(=O)c3ccccc23)ccc1F)N1CCN(C(=O)C2CC2)CC1 [Olaparib] + COc1nnc2ccc(N3CCC(c4ccc(OCCN5CCN(C)C(=O)[C@H]5C)cc4)CC3)nn12 [AZD5153] (first compound max 10 µM, 7x7, partner max 1 µM)
Result string: -0.107

====

The compounds listed here are annotated with their combination Emax.
Test system: MES-SA (Other Solid Carcinomas)
experiment description: combination Emax (second highest fraction inhibited in the dose matrix, 72 h); higher = more inhibition; extreme values may be limits of the assay
Write the number on its own, no unit after it.

Below, each entry is followed by its recorded combination Emax result.
| compound | combination Emax |
| --- | --- |
| CC(=O)c1c(C)c2cnc(Nc3ccc(N4CCNCC4)cn3)nc2n(C2CCCC2)c1=O [Palbociclib] + Cn1cnc2c(F)c(Nc3ccc(Br)cc3Cl)c(C(=O)NOCCO)cc21 [Selumetinib] (first compound max 10 µM, 7x7, partner max 10 µM) | 0.38 |
| CN(CCO)CC[C@H](CSc1ccccc1)Nc1ccc(S(=O)(=O)NC(=O)c2ccc(N3CCC([C@@H](O)c4ccccc4-c4ccc(Cl)cc4)CC3)cc2)cc1S(=O)(=O)C(F)(F)F [AZD4320] + C=CCn1c(=O)c2cnc(Nc3ccc(N4CCN(C)CC4)cc3)nc2n1-c1cccc(C(C)(C)O)n1 [AZD1775] (first compound max 1 µM, partner max 1 µM) | 0.865 |

Query string: Value lookup for combination Emax; key = C[C@@H](c1ccc2nccn2c1)n1nnc2ncc(-c3cnn(C)c3)nc21 [Savolitinib] + Cc1c2c(nn1C)CSCc1cc(n(C)n1)CSc1cc(c3ccccc3c1)OCCCc1c(C(=O)O)n(C)c3c-2c(Cl)ccc13 [AZD5991] (first compound max 1 µM, 7x7, partner max 1 µM)
Result string: 0.191

Query string: Value lookup for combination Emax; key = Cc1c2c(nn1C)CSCc1cc(n(C)n1)CSc1cc(c3ccccc3c1)OCCCc1c(C(=O)O)n(C)c3c-2c(Cl)ccc13 [AZD5991] + CC1(C)CCC(CN2CCN(c3ccc(C(=O)NS(=O)(=O)c4ccc(NCC5CCOCC5)c([N+](=O)[O-])c4)c(Oc4cnc5[nH]ccc5c4)c3)CC2)=C(c2ccc(Cl)cc2)C1 [Venetoclax] (first compound max 1 µM, 7x7, partner max 1 µM)
Result string: 0.323

Query string: Value lookup for combination Emax; key = CC1(C)CCC(CN2CCN(c3ccc(C(=O)NS(=O)(=O)c4ccc(NCC5CCOCC5)c([N+](=O)[O-])c4)c(Oc4cnc5[nH]ccc5c4)c3)CC2)=C(c2ccc(Cl)cc2)C1 [Venetoclax] + C=CCn1c(=O)c2cnc(Nc3ccc(N4CCN(C)CC4)cc3)nc2n1-c1cccc(C(C)(C)O)n1 [AZD1775] (first compound max 1 µM, partner max 1 µM)
Result string: 0.787

Query string: Value lookup for combination Emax; key = COc1cccc(OCCCN)c1-c1cc(Nc2cnc(C#N)cn2)n[nH]1 [Prexasertib] + C=CCn1c(=O)c2cnc(Nc3ccc(N4CCN(C)CC4)cc3)nc2n1-c1cccc(C(C)(C)O)n1 [AZD1775] (first compound max 1 µM, partner max 1 µM)
Result string: 0.892

====

Tested on: SW948 (Colorectal Carcinoma)
experiment description: Bliss excess, mean over the matrix (fraction); higher = more synergy
The compounds listed here are annotated with their Bliss excess.
Write the number on its own, no unit after it.

| compound | Bliss excess |
| --- | --- |
| C[C@@H](c1ccc2nccn2c1)n1nnc2ncc(-c3cnn(C)c3)nc21 [Savolitinib] + CC1(C)CCC(CN2CCN(c3ccc(C(=O)NS(=O)(=O)c4ccc(NCC5CCOCC5)c([N+](=O)[O-])c4)c(Oc4cnc5[nH]ccc5c4)c3)CC2)=C(c2ccc(Cl)cc2)C1 [Venetoclax] (first compound max 1 µM, 7x7, partner max 1 µM) | -0.0488 |
| COc1cccc2c1C(=O)c1c(O)c3c(c(O)c1C2=O)C[C@@](O)(C(=O)CO)C[C@@H]3O[C@H]1C[C@H](N)[C@H](O)[C@H](C)O1 [Doxorubicin] + Cc1cc2ncnn2cc1Nc1ncc2c(n1)n(C1CCOCC1)c(=O)n2C [AZD7648] (first compound max 1 µM, 7x7, partner max 10 µM) | 0.0438 |

// next entry
Query string: Value lookup for Bliss excess; key = NC1(C(=O)N[C@@H](CCO)c2ccc(Cl)cc2)CCN(c2ncnc3[nH]ccc23)CC1 [Capivasertib] + Cn1cnc2c(F)c(Nc3ccc(Br)cc3Cl)c(C(=O)NOCCO)cc21 [Selumetinib] (first compound max 10 µM, 7x7, partner max 10 µM)
Result string: -0.0554

====

The compounds listed here are annotated with their Bliss excess.
Test system: SK-UT-1 (Other Solid Carcinomas)
experiment description: Bliss excess, mean over the matrix (fraction); higher = more synergy

Below, each entry is followed by its recorded Bliss excess result.
| compound | result |
| --- | --- |
| CS(=O)(=O)CCNCc1ccc(-c2ccc3ncnc(Nc4ccc(OCc5cccc(F)c5)c(Cl)c4)c3c2)o1 [Lapatinib] + NC1(c2ccc(-c3nc4ccn5c(=O)[nH]nc5c4cc3-c3ccccc3)cc2)CCC1 [MK-2206] (first compound max 10 µM, 7x7, partner max 10 µM) | 0.0057 |
| CN(C)CCCOc1ccc(-c2ccc3ncc4c(c3c2)n(C2CCOCC2)c(=O)n4C)cn1 [AZD0156] + O=C(c1cc(Cc2n[nH]c(=O)c3ccccc23)ccc1F)N1CCN(C(=O)C2CC2)CC1 [Olaparib] (first compound max 3 µM, partner max 3 µM) | 0.0429 |
| CN(CCO)CC[C@H](CSc1ccccc1)Nc1ccc(S(=O)(=O)NC(=O)c2ccc(N3CCC([C@@H](O)c4ccccc4-c4ccc(Cl)cc4)CC3)cc2)cc1S(=O)(=O)C(F)(F)F [AZD4320] + CS(=O)(=O)CCNCc1ccc(-c2ccc3ncnc(Nc4ccc(OCc5cccc(F)c5)c(Cl)c4)c3c2)o1 [Lapatinib] (first compound max 1 µM, 7x7, partner max 10 µM) | 0.006 |

Query string: Value lookup for Bliss excess; key = N#Cc1cnc(Nc2cc(NC[C@H]3CNCCO3)c(C(F)(F)F)cn2)cn1 [SRA737] + C=CCn1c(=O)c2cnc(Nc3ccc(N4CCN(C)CC4)cc3)nc2n1-c1cccc(C(C)(C)O)n1 [AZD1775] (first compound max 10 µM, partner max 1 µM)
Result string: 0.0497
